Entry source: PubChem BioAssay (NCI)

Test system: MCF7 breast
test_name: NCI tumour cell line growth inhibition, 48 h
Assignment: determine reported TGI for the given compounds.

| compound | assayed_target | TGI |
| --- | --- | --- |
| C[C@]12CC[C@H]3[C@@H](C[C@@H]4N=C(c5ccc(O)cc5)S[C@@]45C[C@H](O)CC[C@]35C)[C@@H]1CC[C@@H]2O | MCF7 breast | 21.5 µM |
| CNC1C(OC2C(OC3C(O)C(O)C(O)C(O)C3O)OC(C)C2(O)CO)OC(CO)C(O)C1O (centres undefined) (tested in a mixture with another compound) | MCF7 breast | > 100 µM |
| COc1cc(NC(N)=NCCC(C)(C)c2ccc(C(F)(F)F)cc2)ncc1C#N | MCF7 breast | 2.98 µM |
| COc1ccc(-c2coc3cc(OC)cc(O)c3c2=O)cc1 | MCF7 breast | > 100 µM |
| CSc1nc2c(c(=O)[nH]1)C(c1ccc(Cl)cc1)C1=C(N2)/C(=C/c2ccc(Cl)cc2)CNC1 (centres undefined) | MCF7 breast | 5.85 µM |

Dear reader, for each entry below, please note its TGI.
1. Cc1nc2cc(N)c(Cl)cc2[nH]1
2. CC/C=C\C/C=C\C[C@H]1C/C=C2/C(=O)C=C[C@H]2C/C=C\CCC(=O)O1
3. CCCCCCCCCC(CCCC(O)CC(=O)O)OC1OC(COC2OC(C)C(O)C(O)C2O)C(O)C(O)C1OC1OC(CO)C(O)C(O)C1OC1OC(C)C(O)C(O)C1O (centres undefined)
4. CC1(C)OC(=S)N(c2ccccc2)C12C=Cc1cc3ccccc3cc1O2 (centres undefined)
5. Cc1ccc(C)c(NC(=O)C(Cc2c[nH]c3ccccc23)NC(=O)OCc2ccccc2)c1 (centres undefined)
6. Cc1nc2c(ncn2CCO)c(=O)[nH]1
7. Cc1n[nH]c(=O)n1N1C(=O)c2ccccc2C1=O
8. Cc1cc(N=Nc2ccc(N=Nc3c(O)c(S(=O)(=O)O)cc4cc(S(=O)(=O)O)ccc34)cc2C)ccc1N=Nc1ccc2cc(S(=O)(=O)O)cc(S(=O)(=O)O)c2c1

1: > 100 µM; 2: 11.8 µM; 3: > 40 µM; 4: > 100 µM; 5: > 100 µM; 6: > 100 µM; 7: > 100 µM; 8: > 100 µM

Could you tell me TGI for each of these compounds? They are listed below.
1. COc1cc(/C=C(\C#N)c2ccccn2)cc(Br)c1O
2. COC(=O)C1C2CCCN2OC1(C)CO (centres undefined)
3. COC(=O)c1ccc(C2SCC(=O)N2NC(=O)C(O)c2ccccc2)cc1 (centres undefined)
4. CCCCCC(/C=N/N)C(O)(C(F)(F)F)C(F)(F)F (centres undefined)
5. Cc1nc(C)c(N2CCN(C#N)CC2)c(=O)[nH]1

1. > 100 µM
2. > 100 µM
3. > 100 µM
4. > 10 µM
5. > 100 µM

The recorded TGI for entry CC(=O)OCC1OC(n2c(-c3ccccc3)c(C)c(C)c(C#N)c2=S)C(OC(C)=O)C(OC(C)=O)C1OC(C)=O (centres undefined) equals > 100 µM

----------
Tested on: ACHN renal
test_name: NCI tumour cell line growth inhibition, 48 h
experimental_readout: TGI

| compound | assayed_target | TGI |
| --- | --- | --- |
| O=C1C[C@H]2[C@H](c3ccc(Br)cc3)[C@H]3C(=O)c4ccccc4NC(=O)[C@@H]3[C@@]2(O)c2ccccc2N1 | ACHN renal | 97.7 µM |
| CCOC(=O)NC(=O)c1cn(CCSCCOC(=O)NCCCCCCNC(=O)OCCSCCn2cc(C(=O)NC(=O)OCC)c(=O)[nH]c2=O)c(=O)[nH]c1=O | ACHN renal | > 100 µM |
| COC(=O)CCC(=O)c1ccc2c(c1)CC1(C2)Cc2ccc3c(c2C1)CCCC3=O (stereo not given) | ACHN renal | > 70.2 µM |
| C/C(=N\Nc1nc2ccccc2o1)c1ccncn1 | ACHN renal | > 100 µM |

Data point: O=C1OC(c2ccccc2)N/C1=C\c1ccc2c(c1)OCO2 (stereo not given) ; TGI = > 100 µM

----------
Test system: HCT-15 colon
test_name: NCI tumour cell line growth inhibition, 48 h
Kindly supply the reported TGI values for the records listed here.

Would you please look over these solved cases?
| compound | TGI |
| --- | --- |
| CP(C)(=S)P(C)(C)=S | > 100 µM |
| NC(N)=Nc1nc2ccccc2[nH]1 | > 150 µg/mL |
| CC1=NN(C(=O)Cc2ccccc2)C(=O)/C1=C\c1ccco1 | > 100 µM |
| Cc1ccc(S(=O)(=O)n2cc(-c3nnnn3-c3ccc(Cl)cc3)c(=O)c3ccccc32)cc1 | > 100 µM |
| c1ccc(C2N3CCCCC3[C@@H]3c4[nH]c5ccccc5c4CCN23)cc1 (stereo partly specified) | > 100 µM |

Let us move to another entry and its TGI.
Item: COC(=O)c1ccc(C2SCC(=O)N2NC(=O)C(O)c2ccccc2)cc1 (stereo unspecified) | TGI: > 100 µM

----------
Tested on: M19-MEL melanoma
test_name: NCI tumour cell line growth inhibition, 48 h
Consider the following molecules; for each one, report its TGI.

| molecule | assayed_target | TGI |
| --- | --- | --- |
| CC1=C(C(=O)Nc2ccccc2C)C(c2ccc(C3C(C(=O)Nc4ccccc4C)=CNC=C3C(=O)Nc3ccccc3C)cc2)C(C(=O)Nc2ccccc2C)=C(C)N1 | M19-MEL melanoma | > 57.3 µM |
| Cc1cc(-c2ccccc2)cc2[n+]1CC=C2 | M19-MEL melanoma | > 100 µM |
| C=C1C(=O)OC2/C=C(\C)C3OC3/C=C(/C(=O)OC)C(OC(C)=O)C(OC(=O)C(C)(O)C(C)OC(C)=O)C12 (centres undefined) | M19-MEL melanoma | 22.4 µM |
| CC(O[Si](C)(C)C)C1C=CC(C)n2c(=O)n(-c3ccccc3)c(=O)n21 (centres undefined) | M19-MEL melanoma | > 100 µM |
| COC(=O)C(Cc1nc2ccccc2[nH]c1=O)C(=O)C(=O)Nc1ccc(OC)cc1[N+](=O)[O-] (centres undefined) | M19-MEL melanoma | > 100 µM |

# batch: return TGI for each of the 4 molecules below
1. N#CC1=C(c2ccccc2)C(O)(c2ccccc2)NC1=O (centres undefined)
2. CSc1ccc2c(cc1=O)[C@@H](NC(=O)c1ccc(F)cc1)CCc1cc(O)c(O)c(O)c1-2
3. S=C(Nc1ccccc1)N1N=C2c3ccccc3CC[C@H]2[C@@H]1c1ccccc1
4. CC(=O)NC(CCCCNC(=O)N(C)N=O)C(=O)NCc1ccccc1 (centres undefined)

> 100 µM
> 100 µM
> 100 µM
> 100 µM

----------
Assign TGI to each entry below.
System: SF-295 CNS
test_name: NCI tumour cell line growth inhibition, 48 h
*1 amine or outer side, *2 acyl side, *3 side chain or, on linkers, in order; H or OH if unused. Where a SMILES comes first, the peptide text is derived from it. Bridges are numbered along the chain shown (N, C = ends). [ ]: non-standard residue; d: D form. The star is where a group is joined. Phe(3-Me) = Cc1cccc(C[C@H](N)C(=O)O)c1; NH(4-Cl-2-F-phenyl) = Fc1cc(Cl)ccc1N*; Pro(4R-Me) = C[C@H]1CN[C@H](C(=O)O)C1; Propanoyl(3-NMe2) = CN(C)CCC(=O)*; Hyp = O=C(O)[C@@H]1C[C@@H](O)CN1; aThr = C[C@H](O)[C@H](N)C(=O)O; Pip = O=C(O)[C@@H]1CCCCN1; CO = O=C([*:1])[*:2]
Answers are plain numbers, in µM.

Example compounds with recorded TGI:
| compound | TGI / µM |
| --- | --- |
| Cc1ccc(NC(=O)c2nc(S(C)=O)oc2-c2ccc(F)cc2)cc1Nc1nccc(-c2cccnc2)n1 (configuration not stated) | 29.2 |
| C[C@]12CC[C@H]3[C@@H](C[C@@H]4N=C(c5ccc(O)cc5)S[C@@]45C[C@H](O)CC[C@]35C)[C@@H]1CC[C@@H]2O | 2.03 |
| CC[C@@]1(O)C(=O)OCc2c1cc1n(c2=O)Cc2c-1nc1ccccc1c2/C=N/OC(C)(C)C | 0.599 |
| CCCCP(CCCC)(CCCC)=C(C(=O)OC)C(C(=O)OC)=C1SC(C(=O)OC)=C(C(=O)OC)S1 | 36.3 |

Pending compound:
Assay SF-295 CNS, sample Cc1cccc(C[C@H](NC(=O)Nc2ccc(Cl)cc2F)C(=O)N[C@@H]2C(=O)N3C[C@H](OC(=O)CCN(C)C)C[C@H]3C(=O)N3CCCC[C@H]3C(=O)N[C@@H](C)C(=O)N3C[C@H](C)C[C@H]3C(=O)O[C@H]2C)c1 ({NH(4-Cl-2-F-phenyl)-CO}-[Phe(3-Me)][aThr][Hyp](Propanoyl(3-NMe2))[Pip]A[Pro(4R-Me)]; ester 2-C) , TGI read: 2.15
